assay: gradient 5% acetonitrile 3 min, to 50% in 2 min, to 85% in 15 min, held 3 min, 100 µL/min; settings: column: Zorbax Extend-C18 2.1 x 50 mm; eluents: water / acetonitrile, 0.1% formic acid
ASSAY_ENDPOINT: RP-LC retention time (s)

CCCS(=O)(=O)c1nc2ccc(NS(=O)(=O)c3cccc4nsnc34)cc2s1
878
CCc1cccc(C)c1NC(=O)Cn1cnc2nc(N3CCC(C(=O)NC)CC3)sc2c1=O
646
Cc1noc(C)c1S(=O)(=O)N1[C@H]2CC[C@@H]1c1cnc(-c3ccc(F)cc3)nc1C2
1060
Cn1c(=O)n(C)c2cc(S(=O)(=O)c3ccc(F)cc3)c(NC(=O)c3ccc(F)cc3)cc21
899
Cc1ccc2nc(-c3ccccc3)c(Nc3ccccc3C)n2c1
726
CC(C)NC(=O)c1ccc2c(c1)NC(=O)C1CCCCN21 (stereo not drawn)
692
CCCCNC(=O)C1CCN(S(C)(=O)=O)c2cc(Cl)ccc2O1 (stereo not drawn)
887
COc1cccc(C(O)CN2CCN(c3ccc(C)cc3)CC2)c1 (stereo not drawn)
677
COC(=O)C1=CN(c2ccc(C(=O)OC)cc2)c2ccccc2S1(=O)=O
747
OCc1cnc(SCc2cccc(C(F)(F)F)c2)n1Cc1ccc2c(c1)OCO2
649
CCOc1cccc(-c2noc(Cn3ccn(-c4ccccc4C)c(=O)c3=O)n2)c1
911
O=C(Nc1cc2c3c(c1)CCC(=O)N3CCC2)C(=O)Nc1ccc2c(c1)OCO2
747
CCOC(=O)c1cc(S(=O)(=O)N2CC3CC(C2)c2cccc(=O)n2C3)cn1C (stereo not drawn)
704
